Molecular target: T1, Recombinant Human FGFR2 alpha (IIIc) Fc Chimera Protein, CF (R&D systems, 712-FR-050) (human, UniProt P21802 22-377)
T1 construct: bought; not shown: Fc part of the chimera
T1 sequence (P21802 22-377, change not shown): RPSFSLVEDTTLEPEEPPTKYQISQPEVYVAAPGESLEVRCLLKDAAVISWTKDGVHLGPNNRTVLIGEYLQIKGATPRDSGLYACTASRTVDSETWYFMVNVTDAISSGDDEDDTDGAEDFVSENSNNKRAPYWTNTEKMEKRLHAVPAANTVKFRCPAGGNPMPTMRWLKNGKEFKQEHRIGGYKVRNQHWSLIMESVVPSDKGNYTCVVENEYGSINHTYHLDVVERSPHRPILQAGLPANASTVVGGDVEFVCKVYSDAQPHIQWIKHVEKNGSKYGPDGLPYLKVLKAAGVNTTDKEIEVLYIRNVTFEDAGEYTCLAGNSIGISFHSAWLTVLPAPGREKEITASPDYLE
Assay: ELISA on plate-bound FGFR2-Fc
Bridge positions count the residues as written; N and C are the ends. Ends that are not written are not given here. COCH2 = acetyl group that carries the bridge
REPORTED_ENDPOINT: ELISA luminescence signal at 10 nmol/L peptide, relative to SEQ ID NO: 47 (=1)

Consider the reported ELISA luminescence signal at 10 nmol/L peptide, relative to SEQ ID NO: 47 (=1) for these binders:
QCLQYLYQYLFK(COCH2)I (thioether 2-12) [cyclic peptide SEQ ID NO: 364] :: 0.1 to 0.5 ratio
YCEENYLDPEQYYYFIYFK(COCH2)Y (thioether 2-19 (inferred)) [cyclic peptide SEQ ID NO: 262] :: ≥ 0.7 ratio
YCEENYMDPEQYQYFIYFK(COCH2)Y (thioether 2-19) [cyclic peptide SEQ ID NO: 351] :: ≥ 0.7 ratio

For YCEENYLDPEQYQFFIYFK(COCH2)Y (thioether 2-19 (inferred)) [cyclic peptide SEQ ID NO: 272] , write its ELISA luminescence signal at 10 nmol/L peptide, relative to SEQ ID NO: 47 (=1).
≥ 0.7 ratio

Annotate the binder FCPQNFINPVQWRYFQHYK(COCH2)N (thioether 2-19 (inferred)) [cyclic peptide SEQ ID NO: 76] with its measured ELISA luminescence signal at 10 nmol/L peptide, relative to SEQ ID NO: 47 (=1).
≥ 0.7 ratio

Return reported ELISA luminescence signal at 10 nmol/L peptide, relative to SEQ ID NO: 47 (=1). Input binder: PCDRQLYYLYQYIHK(COCH2)T (thioether 2-15) [cyclic peptide SEQ ID NO: 382]
0.1 to 0.5 ratio
